- System: Aspergillus flavus
- run description: Antifungal activity against Aspergillus flavus at 500 ppm after 72 to 96 hr by disk diffusion method
- Format: functional
- protocol conditions: read-out: IZ
Measured zone of inhibition at 500 ppm, listed per entry for reference.
readout name: zone of inhibition at 500 ppm (mm)

compound: COc1ccc(C2NC(c3ccc(OC)cc3)C(C)(C)c3nnsc32)cc1 (stereo not given)
readout name: zone of inhibition at 500 ppm
result unit: mm
measured value: 17
--
compound: Cc1ccc(C2NC(c3ccc(C)cc3)C(C)(C)c3nnsc32)cc1 (stereo not given)
readout name: zone of inhibition at 500 ppm
result unit: mm
measured value: 12
--
compound: CC1(C)c2nnsc2C(c2ccc(F)cc2)NC1c1ccc(F)cc1 (stereo not given)
readout name: zone of inhibition at 500 ppm
result unit: mm
measured value: 17
--
compound: CC1(C)c2nnsc2C(c2ccc(Cl)cc2)NC1c1ccc(Cl)cc1 (stereo not given)
readout name: zone of inhibition at 500 ppm
result unit: mm
measured value: 17
--
compound: CC1(C)c2nnsc2C(c2ccccc2)NC1c1ccccc1 (stereo not given)
readout name: zone of inhibition at 500 ppm
result unit: mm
measured value: 17
